Test system: NAD-dependent protein deacetylase sirtuin-2 (Homo sapiens) (UniProt Q8IXJ6)
Sequence (whole entry): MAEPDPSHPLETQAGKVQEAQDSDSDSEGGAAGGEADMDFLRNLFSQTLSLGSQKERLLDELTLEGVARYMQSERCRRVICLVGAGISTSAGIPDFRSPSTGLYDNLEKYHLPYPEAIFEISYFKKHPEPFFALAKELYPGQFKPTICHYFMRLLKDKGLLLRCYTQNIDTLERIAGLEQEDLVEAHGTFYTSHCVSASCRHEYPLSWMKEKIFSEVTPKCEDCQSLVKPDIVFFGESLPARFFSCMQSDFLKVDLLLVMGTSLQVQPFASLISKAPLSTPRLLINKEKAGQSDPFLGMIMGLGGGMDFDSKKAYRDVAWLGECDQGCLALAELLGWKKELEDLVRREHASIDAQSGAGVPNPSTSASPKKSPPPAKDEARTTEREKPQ
Assay summary: Inhibition of recombinant human C-terminal His-tagged SIRT2 (50 to 389 end residues) expressed in Escherichia coli at 10 uM using p53 derived (379 to 382 residues) fluorogenic peptide substrate RHKK(Ac)-AMC preincubated for 10 mins followed by substrate addition in presence of NAD+ by fluorescence assay relative to control
Label T when inhibition >= 60%; otherwise F.

Compound: O=c1c2c3c(sc2ncn1Cc1cccc2cccnc12)CC(NCc1ccccc1)CC3 (stereo not drawn)
Test system: NAD-dependent protein deacetylase sirtuin-2 (Homo sapiens) (UniProt Q8IXJ6)
Discrete label: T
//
Compound: COc1ccc(CNC2CCc3c(sc4ncn(Cc5c(OC)ccc6ccccc56)c(=O)c34)C2)cn1 (stereo not drawn)
Test system: NAD-dependent protein deacetylase sirtuin-2 (Homo sapiens) (UniProt Q8IXJ6)
Discrete label: T
//
Compound: N#Cc1ccc(CNC2CCc3c(sc4ncn(Cc5cccc(-c6ccccc6)c5)c(=O)c34)C2)cc1 (stereo not drawn)
Test system: NAD-dependent protein deacetylase sirtuin-2 (Homo sapiens) (UniProt Q8IXJ6)
Discrete label: T
//
Compound: O=c1c2c3c(sc2ncn1Cc1cccc2ccccc12)CC(NCCC1CCCCC1)CC3 (stereo not drawn)
Test system: NAD-dependent protein deacetylase sirtuin-2 (Homo sapiens) (UniProt Q8IXJ6)
Discrete label: T
//
Compound: COc1cccc(NC2CCc3c(sc4ncn(Cc5cccc6ccccc56)c(=O)c34)C2)c1 (stereo not drawn)
Test system: NAD-dependent protein deacetylase sirtuin-2 (Homo sapiens) (UniProt Q8IXJ6)
Discrete label: F
//
Compound: COc1ccc(CNC2CCc3c(sc4ncn(Cc5cccc6cccnc56)c(=O)c34)C2)cn1 (stereo not drawn)
Test system: NAD-dependent protein deacetylase sirtuin-2 (Homo sapiens) (UniProt Q8IXJ6)
Discrete label: T
//
Compound: O=c1c2c3c(sc2ncn1Cc1cccc2cccnc12)CC(NCc1cccs1)CC3 (stereo not drawn)
Test system: NAD-dependent protein deacetylase sirtuin-2 (Homo sapiens) (UniProt Q8IXJ6)
Discrete label: T
//
Compound: Cc1noc(C)c1CNC1CCc2c(sc3ncn(Cc4cccc5ccccc45)c(=O)c23)C1 (stereo not drawn)
Test system: NAD-dependent protein deacetylase sirtuin-2 (Homo sapiens) (UniProt Q8IXJ6)
Discrete label: T
//
Compound: COc1cccc(Cn2cnc3sc4c(c3c2=O)CCC(NCc2ccccc2OC)C4)c1 (stereo not drawn)
Test system: NAD-dependent protein deacetylase sirtuin-2 (Homo sapiens) (UniProt Q8IXJ6)
Discrete label: T
//
Compound: COc1ccccc1CCNC1CCc2c(sc3ncn(Cc4ccc(OC)c5ccccc45)c(=O)c23)C1 (stereo not drawn)
Test system: NAD-dependent protein deacetylase sirtuin-2 (Homo sapiens) (UniProt Q8IXJ6)
Discrete label: T
//
Compound: COCCNC1CCc2c(sc3ncn(Cc4c(OC)ccc5ccccc45)c(=O)c23)C1 (stereo not drawn)
Test system: NAD-dependent protein deacetylase sirtuin-2 (Homo sapiens) (UniProt Q8IXJ6)
Discrete label: F
//
Compound: O=c1c2c3c(sc2ncn1Cc1ccc2ccccc2c1)CC(NCc1ccccc1F)CC3 (stereo not drawn)
Test system: NAD-dependent protein deacetylase sirtuin-2 (Homo sapiens) (UniProt Q8IXJ6)
Discrete label: F
